Entries and their selective for TRPA1 over NaV1.2 values follow.
Biological target: hNaV1.2 (Homo sapiens, UniProt Q99250)
Sequence (Q99250 whole entry): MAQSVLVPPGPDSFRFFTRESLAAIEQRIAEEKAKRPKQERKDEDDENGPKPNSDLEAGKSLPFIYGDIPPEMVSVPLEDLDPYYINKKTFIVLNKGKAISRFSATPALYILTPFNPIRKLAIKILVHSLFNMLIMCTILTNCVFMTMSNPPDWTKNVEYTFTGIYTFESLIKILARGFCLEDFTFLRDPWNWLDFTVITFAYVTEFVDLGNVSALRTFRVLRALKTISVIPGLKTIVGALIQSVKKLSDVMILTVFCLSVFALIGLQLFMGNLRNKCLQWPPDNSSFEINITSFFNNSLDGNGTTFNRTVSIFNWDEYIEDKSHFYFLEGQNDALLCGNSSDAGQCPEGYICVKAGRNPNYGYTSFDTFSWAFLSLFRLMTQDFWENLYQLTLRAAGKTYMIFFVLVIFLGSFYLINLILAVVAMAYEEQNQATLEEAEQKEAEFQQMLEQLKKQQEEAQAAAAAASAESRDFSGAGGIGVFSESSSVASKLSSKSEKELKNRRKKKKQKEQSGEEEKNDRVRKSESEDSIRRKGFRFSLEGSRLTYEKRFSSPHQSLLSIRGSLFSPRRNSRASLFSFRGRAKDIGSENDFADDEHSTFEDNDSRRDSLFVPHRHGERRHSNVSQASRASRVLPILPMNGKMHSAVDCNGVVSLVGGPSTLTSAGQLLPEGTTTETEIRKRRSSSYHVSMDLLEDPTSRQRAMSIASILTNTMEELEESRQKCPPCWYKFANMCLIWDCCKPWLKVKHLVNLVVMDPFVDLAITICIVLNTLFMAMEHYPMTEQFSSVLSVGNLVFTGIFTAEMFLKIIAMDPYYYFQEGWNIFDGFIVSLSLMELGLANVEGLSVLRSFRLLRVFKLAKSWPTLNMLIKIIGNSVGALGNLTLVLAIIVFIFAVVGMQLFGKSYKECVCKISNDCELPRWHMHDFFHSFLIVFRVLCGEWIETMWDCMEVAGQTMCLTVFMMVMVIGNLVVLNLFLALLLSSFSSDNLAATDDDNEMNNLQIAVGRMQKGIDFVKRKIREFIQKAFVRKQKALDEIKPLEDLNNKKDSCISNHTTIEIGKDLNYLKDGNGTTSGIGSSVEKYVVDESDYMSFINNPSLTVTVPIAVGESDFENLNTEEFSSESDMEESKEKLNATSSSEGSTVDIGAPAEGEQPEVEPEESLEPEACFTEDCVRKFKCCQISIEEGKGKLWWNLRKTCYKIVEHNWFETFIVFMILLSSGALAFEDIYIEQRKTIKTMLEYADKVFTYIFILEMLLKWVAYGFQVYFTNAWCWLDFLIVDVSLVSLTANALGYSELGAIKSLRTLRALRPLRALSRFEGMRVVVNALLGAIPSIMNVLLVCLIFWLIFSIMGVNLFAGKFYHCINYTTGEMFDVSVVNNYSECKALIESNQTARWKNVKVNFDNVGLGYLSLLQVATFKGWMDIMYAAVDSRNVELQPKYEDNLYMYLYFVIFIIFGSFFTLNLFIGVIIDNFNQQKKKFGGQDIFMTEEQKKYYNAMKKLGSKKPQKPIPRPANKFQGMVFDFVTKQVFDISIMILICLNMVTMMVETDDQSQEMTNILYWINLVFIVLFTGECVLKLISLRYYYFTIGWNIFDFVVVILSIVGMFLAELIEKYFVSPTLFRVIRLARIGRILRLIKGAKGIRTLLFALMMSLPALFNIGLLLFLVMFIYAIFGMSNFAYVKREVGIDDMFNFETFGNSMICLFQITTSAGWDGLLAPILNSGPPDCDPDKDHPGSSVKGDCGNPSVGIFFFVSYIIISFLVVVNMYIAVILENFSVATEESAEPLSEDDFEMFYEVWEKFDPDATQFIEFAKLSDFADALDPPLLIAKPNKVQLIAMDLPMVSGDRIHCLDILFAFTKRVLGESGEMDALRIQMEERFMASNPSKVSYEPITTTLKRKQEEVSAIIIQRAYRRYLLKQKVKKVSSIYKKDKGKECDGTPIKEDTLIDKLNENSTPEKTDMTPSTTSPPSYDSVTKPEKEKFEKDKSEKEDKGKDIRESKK
Assay: hNaV1.2 patch clamp (Qpatch) selectivity
Assay type: cell-based
Details: Table 2

Worked cases, selective for TRPA1 over NaV1.2 given:
Cn1c(=O)c2c(ncn2CC(=O)Nc2cccc(C(F)(F)F)c2)n(C)c1=O | ≥ 5 fold
Cn1c(=O)c2c(ncn2CC(=O)Nc2ccc(Br)cc2)n(C)c1=O | ≥ 25 fold
CCC(C)c1ccc(NC(=O)Cn2cnc3c2c(=O)n(C)c(=O)n3C)cc1 (stereo not drawn) | ≥ 55 fold

// sample CC(C)c1ccc(NC(=O)Cn2cnc3c2c(=O)n(C)c(=O)n3C)cc1 , its selective for TRPA1 over NaV1.2 was ≥ 25 fold

Record Cn1c(=O)c2c(ncn2CC(=O)Nc2ccc(Cl)c(Cl)c2)n(C)c1=O , field selective for TRPA1 over NaV1.2: ≥ 50 fold

Lookup result for Cn1c(=O)c2c(ncn2CC(=O)Nc2nc(-c3ccc(Br)cc3)cs2)n(C)c1=O ; measured selective for TRPA1 over NaV1.2: ≥ 75 fold

---

Molecular target: hTRPA1 (Homo sapiens, UniProt O75762, K186N)
Construct: expressed in transfected cells; host or cells: HEK293/TREx (Invitrogen), induced with tetracycline
Sequence (O75762 whole entry K186N): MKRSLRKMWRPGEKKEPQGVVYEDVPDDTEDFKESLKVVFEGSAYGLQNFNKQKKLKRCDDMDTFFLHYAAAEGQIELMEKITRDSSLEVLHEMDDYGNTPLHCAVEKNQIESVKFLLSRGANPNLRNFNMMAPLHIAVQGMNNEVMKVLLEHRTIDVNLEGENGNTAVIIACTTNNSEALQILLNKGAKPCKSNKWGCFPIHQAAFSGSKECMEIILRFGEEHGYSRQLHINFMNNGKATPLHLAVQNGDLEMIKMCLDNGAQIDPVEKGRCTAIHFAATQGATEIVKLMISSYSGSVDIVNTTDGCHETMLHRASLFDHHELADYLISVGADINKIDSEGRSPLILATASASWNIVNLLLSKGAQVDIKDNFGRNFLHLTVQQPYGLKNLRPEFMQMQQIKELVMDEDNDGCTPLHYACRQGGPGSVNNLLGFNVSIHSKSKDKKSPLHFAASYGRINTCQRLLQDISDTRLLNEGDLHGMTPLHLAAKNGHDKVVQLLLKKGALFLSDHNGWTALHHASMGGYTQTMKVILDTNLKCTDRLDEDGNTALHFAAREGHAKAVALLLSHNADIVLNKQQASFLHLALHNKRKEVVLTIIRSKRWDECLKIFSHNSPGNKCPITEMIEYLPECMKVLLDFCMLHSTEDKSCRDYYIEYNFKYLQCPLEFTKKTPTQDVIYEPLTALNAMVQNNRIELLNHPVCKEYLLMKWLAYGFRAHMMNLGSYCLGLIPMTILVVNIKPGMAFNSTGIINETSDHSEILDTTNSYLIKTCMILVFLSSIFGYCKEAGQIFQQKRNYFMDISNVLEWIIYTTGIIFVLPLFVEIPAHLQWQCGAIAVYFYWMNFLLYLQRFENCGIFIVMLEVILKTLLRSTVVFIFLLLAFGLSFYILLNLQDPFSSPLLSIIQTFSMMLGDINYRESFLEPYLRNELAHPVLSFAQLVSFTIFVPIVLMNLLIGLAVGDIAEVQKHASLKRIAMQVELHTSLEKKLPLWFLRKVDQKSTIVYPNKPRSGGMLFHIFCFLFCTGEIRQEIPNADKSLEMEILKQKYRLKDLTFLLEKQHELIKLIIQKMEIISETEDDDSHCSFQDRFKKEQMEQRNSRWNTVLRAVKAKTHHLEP
Assay: High throughput Ca2+ fluorescence (Fluo4) assay, AITC stimulation
Assay type: cell-based
Conditions: Table 1; read-out: hTRPA1 Fluo4 IC50
reported_endpoint: IC50

Example results:
CSc1ccc(C2NC(=O)NC(C)=C2C(=O)OCc2ccccc2)cc1 (centres unmarked) | > 10 µM
CCOC(=O)C1=C(CN2CCN(C)CC2)NC(=O)NC1c1cc(C)ccc1C (centres unmarked) | > 10 µM
CCC(C)OC(=O)C1=C(C)NC(=O)NC1c1ccc(C(F)(F)F)cc1 (centres unmarked) | ≤ 10 µM
COC(=O)C1=C(C)N(C)C(=S)NC1c1ccc(Cl)cc1 (centres unmarked) | ≤ 10 µM
COC(=O)C1=C(C)NC(=S)NC1c1c(Cl)cccc1Cl (centres unmarked) | ≤ 5 µM
COc1cc2c(cc1C1NC(=S)NC(C)=C1C(=O)N(C)C)CCCC2 (centres unmarked) | > 10 µM
COCCOC(=O)C1=C(C)NC(=S)NC1c1ccc(F)cc1 (centres unmarked) | ≤ 5 µM
CCOC(=O)C1=C(C)NC(=O)NC1c1ccc(O)cc1 (centres unmarked) | > 10 µM
CCOC(=O)C1=C(C)NC(=S)NC1c1cc(C)ccc1C (centres unmarked) | > 10 µM
CC1=C(C(=O)OCc2ccccc2)C(c2ccc(F)cc2)NC(=O)N1 (centres unmarked) | > 10 µM

IC50 of COC(=O)C1=C(CN2CCc3ccccc32)NC(=O)NC1c1cc(C)ccc1C (centres unmarked) , assay on hTRPA1 (Homo sapiens, UniProt O75762, K186N), is > 10 µM

# lookup: CCOC(=O)C1=C(c2ccccc2)NC(=S)NC1c1cc(C)ccc1C (centres unmarked) on hTRPA1 (Homo sapiens, UniProt O75762, K186N), IC50 = > 10 µM

Bench note, hTRPA1 (Homo sapiens, UniProt O75762, K186N): COC(=O)C1=C(CN2CCCCC2)NC(=O)NC1c1ccc(C)cc1C (centres unmarked) , IC50 reads > 10 µM

Response field IC50 (hTRPA1 (Homo sapiens, UniProt O75762, K186N)) for item CCOC(=O)C1=C(c2ccccc2)NC(=O)NC1c1ccccc1Cl (centres unmarked) : > 10 µM

Record COC(=O)C1=C(C)N(C)C(=O)NC1c1ccc(F)c(F)c1 (centres unmarked) has hTRPA1 (Homo sapiens, UniProt O75762, K186N) IC50 equal to ≤ 5 µM

The compound COC(=O)C1=C(CN2CCCC2)NC(=O)NC1c1cc(C)ccc1C (centres unmarked) , tested on hTRPA1 (Homo sapiens, UniProt O75762, K186N), showed IC50 of > 10 µM

---

Biological target: hTRPA1 (Homo sapiens, UniProt O75762, K186N)
Construct: expressed in transfected cells; host or cells: HEK293/TREx (Invitrogen), induced with tetracycline
Experiment: High throughput Ca2+ fluorescence (Fluo4) assay, AITC stimulation
Type: cell-based
Conditions: Table 2; read-out: hTRPA1 Fluor IC50
reported_endpoint: IC50

Cc1sc(NC(=O)Cn2cnc3c2c(=O)n(C)c(=O)n3C)nc1-c1ccc(Cl)cc1 | ≤ 10 µM
Cn1c(=O)c2c(ncn2CC(=O)Nc2cccc(C(F)(F)F)c2)n(C)c1=O | ≤ 5 µM
Cn1c(=O)c2c(ncn2CC(=O)Nc2ccc3c(c2)OC2(CCCC2)O3)n(C)c1=O | ≤ 5 µM
Cc1nn(Cc2ccccc2)c(C)c1CNC(=O)Cn1cnc2c1c(=O)n(C)c(=O)n2C | > 10 µM

Summary: CCc1ccc(-c2csc(NC(=O)Cn3cnc4c3c(=O)n(C)c(=O)n4C)n2)cc1 , hTRPA1 (Homo sapiens, UniProt O75762, K186N), IC50 = ≤ 5 µM

Readout IC50 for Cn1c(=O)c2c(ncn2CC(=O)NCc2ccc3c(c2)OCO3)n(C)c1=O , test system hTRPA1 (Homo sapiens, UniProt O75762, K186N), was > 10 µM

Observed IC50, hTRPA1 (Homo sapiens, UniProt O75762, K186N), Cn1c(=O)c2c(ncn2CC(=O)Nc2ccc(Cl)cc2F)n(C)c1=O : ≤ 5 µM

Bench note, hTRPA1 (Homo sapiens, UniProt O75762, K186N): Cn1c(=O)c2c(ncn2CC(=O)NC(C)(C)C)n(C)c1=O , IC50 reads > 10 µM

---

Biological target: hERG (Homo sapiens)
Sequence (Q12809 whole entry): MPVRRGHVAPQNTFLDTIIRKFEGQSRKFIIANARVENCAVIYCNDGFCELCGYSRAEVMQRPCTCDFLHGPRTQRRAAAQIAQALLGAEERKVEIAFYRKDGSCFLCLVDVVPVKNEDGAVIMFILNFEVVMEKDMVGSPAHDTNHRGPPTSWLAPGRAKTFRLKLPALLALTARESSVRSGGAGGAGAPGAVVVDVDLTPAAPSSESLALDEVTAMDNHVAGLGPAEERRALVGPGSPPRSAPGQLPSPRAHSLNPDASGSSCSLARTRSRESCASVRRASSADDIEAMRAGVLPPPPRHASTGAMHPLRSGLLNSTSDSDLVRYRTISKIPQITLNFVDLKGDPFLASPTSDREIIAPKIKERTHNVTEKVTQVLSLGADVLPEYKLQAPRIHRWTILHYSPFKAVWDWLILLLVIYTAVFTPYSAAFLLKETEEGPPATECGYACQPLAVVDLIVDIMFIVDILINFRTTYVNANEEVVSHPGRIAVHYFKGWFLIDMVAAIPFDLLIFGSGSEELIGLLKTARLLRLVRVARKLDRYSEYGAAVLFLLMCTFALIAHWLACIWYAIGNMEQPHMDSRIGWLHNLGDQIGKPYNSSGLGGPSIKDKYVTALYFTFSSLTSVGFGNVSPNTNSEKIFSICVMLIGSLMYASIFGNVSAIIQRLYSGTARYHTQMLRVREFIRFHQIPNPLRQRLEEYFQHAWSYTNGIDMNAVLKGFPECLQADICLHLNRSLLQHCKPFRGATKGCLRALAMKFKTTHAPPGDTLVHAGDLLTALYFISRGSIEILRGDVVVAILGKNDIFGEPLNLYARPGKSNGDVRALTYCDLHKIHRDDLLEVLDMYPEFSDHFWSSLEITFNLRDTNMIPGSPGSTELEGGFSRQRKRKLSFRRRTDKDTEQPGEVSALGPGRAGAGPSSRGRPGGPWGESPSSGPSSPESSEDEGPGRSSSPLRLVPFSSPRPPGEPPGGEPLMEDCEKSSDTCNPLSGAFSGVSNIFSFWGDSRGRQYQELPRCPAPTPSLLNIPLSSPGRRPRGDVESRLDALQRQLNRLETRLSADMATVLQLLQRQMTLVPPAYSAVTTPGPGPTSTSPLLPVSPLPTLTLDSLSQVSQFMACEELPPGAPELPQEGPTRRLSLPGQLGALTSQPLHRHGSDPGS
Test: hERG patch clamp (Qpatch) selectivity
Conditions: hERG IC50 (nM), Table 2
compounds and their reported IC50

Here's what some known entries look like.
Cn1c(=O)c2c(ncn2CC(=O)Nc2nc(-c3ccc(Br)cc3)cs2)n(C)c1=O | ≥ 30000 nM
Cn1c(=O)c2c(ncn2CC(=O)Nc2ccc3c(c2)OC2(CCCCC2)O3)n(C)c1=O | ≥ 20000 nM
Cn1c(=O)c2c(ncn2CC(=O)Nc2ccc(Br)cc2)n(C)c1=O [Compound 202] | > 10000 nM
CCc1ccc(-c2csc(NC(=O)Cn3cnc4c3c(=O)n(C)c(=O)n4C)n2)cc1 | ≥ 30000 nM
Cn1c(=O)c2c(ncn2CC(=O)Nc2cccc(C(F)(F)F)c2)n(C)c1=O | > 10000 nM
Cn1c(=O)c2c(ncn2CC(=O)Nc2ccc(Br)cc2)n(C)c1=O [Compound 219] | ≥ 20000 nM
CC(C)c1ccc(NC(=O)Cn2cnc3c2c(=O)n(C)c(=O)n3C)cc1 | ≥ 20000 nM
Cn1c(=O)c2c(ncn2CC(=O)Nc2ccc(Cl)c(Cl)c2)n(C)c1=O | ≥ 20000 nM

Record CCC(C)c1ccc(NC(=O)Cn2cnc3c2c(=O)n(C)c(=O)n3C)cc1 (stereo not shown) . Reported IC50: ≥ 10000 nM

Quick note, IC50 for CCOc1ccc(Oc2ccc(NC(=O)Cn3cnc4c3c(=O)n(C)c(=O)n4C)cc2)cc1 landed at ≤ 5000 nM

---

Target: hTRPA1 (Homo sapiens, UniProt O75762, K186N)
Construct: expressed in transfected cells; host or cells: HEK293/TREx (Invitrogen), induced with tetracycline
Experiment: High throughput Ca2+ fluorescence (Fluo4) assay, AITC stimulation
Type: cell-based
Details: Table 1; read-out: hTRPA1 Fluo4 IC50
Text: The assay depended on detection of the rise in intracellular Ca^2+ concentration ([Ca^2+]i) following channel activation in cells inducibly expressing the TRPA1 channel. Ca^2+ rise was quantified with the use of fluorescent Ca^2+ indicators that were loaded into cells and thereafter indicated the [Ca^2+]i. Ca^2+ influx followed activation of the TRPA1 channel. Compounds inhibiting the [Ca^2+]i rise were considered hits for further investigation. […]
IC50 by entry:

Reference set, count: 2
COC(=O)C1=C(C)NC(=S)NC1c1cc(C)ccc1C (centres unmarked) | ≤ 5 µM
C=CCOc1cccc(C2NC(=S)NC(C)=C2C(=O)OCC)c1 (centres unmarked) | ≤ 5 µM

Reported IC50 ( CCOC(=O)C1=C(CN2CCc3ccccc32)NC(=O)NC1c1cc(C)ccc1C (centres unmarked) ) = > 10 µM

// field: IC50; key: CC1=C(C(=O)OCC(C)C)C(c2ccccc2C(F)(F)F)NC(=O)N1 (centres unmarked) ; value = ≤ 5 µM

Input CC1=C(C(=O)OCCC(C)C)C(c2ccc(Cl)c(Cl)c2)NC(=O)N1 (centres unmarked) . Output IC50: > 10 µM

response.value for CCOC(=O)C1=C(CN2CCCCC2)NC(=O)NC1c1cc(C)ccc1C (centres unmarked) (field: IC50) = > 10 µM

Form: compound = COc1cccc(C2NC(=S)NC(C)=C2C(=O)N(C)C)c1OC (centres unmarked) ; IC50 = > 10 µM

response.value for CCOC(=O)C1=C(C)NC(=S)NC1c1cc(OC)ccc1OC (centres unmarked) (field: IC50) = > 10 µM

CCOC(=O)C1=C(c2ccccc2)NC(=S)NC1c1ccccc1OC (centres unmarked) yielded IC50 of > 10 µM

Query COC(=O)C1=C(C)N(C)C(=O)NC1c1c(Cl)cccc1Cl (centres unmarked) yields IC50 of > 10 µM

CCOC(=O)C1=C(c2ccccc2)NC(=S)NC1c1ccc(OC)cc1 (centres unmarked) yielded IC50 of > 10 µM

Origin of values: patent US7671061B2
